# Tested on: 755483-174-R-J1-PDC complex spheroid growth, percent test/control;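 note: spheroids exposed to compounds for seven days before readout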
# testProtocol: Anticancer human tumor 755483-174-R-J1-PDC patient-derived rhabdomyosarcoma cell line growth inhibition [Asc]
# appliedConditions: curve of first compound; second compound 0.1 µM
observationType: IC50

molecule	measurement
CCN1CCN(Cc2ccc(Nc3ncc(F)c(-c4cc(F)c5nc(C)n(C(C)C)c5c4)n3)nc2)CC1 + Cc1c(S(C)(=O)=O)c(-c2cc(F)cc(N3CCN(c4ccc(NS(=O)(=O)c5ccc(NC(CCN6CCC(C(=O)OCCCP(=O)(O)O)CC6)CSc6ccccc6)c(S(=O)(=O)C(F)(F)F)c5)cc4)CC3)c2)c(-c2ccc(Cl)cc2)n1C(C)C	> 1000 nM

Please find the next molecule below.
Look up IC50: Cc1nc(N2CCC3(CC2)COC(C)C3N)c(CO)nc1Sc1ccnc(N)c1Cl (configuration not stated) + CNC(C)C(=O)NC1CN(S(=O)(=O)c2cccc(S(=O)(=O)N3CCC4CCC(C(=O)NC(c5ccccc5)c5ccccc5)N4C(=O)C(NC(=O)C(C)NC)C3)c2)CCC2CCC(C(=O)NC(c3ccccc3)c3ccccc3)N2C1=O < 9.49 nM
